# Lookup of reported % ID per gram kidney keyed by entry
- Tested on: EMT-6 mammary tumors
- experiment: Biodistribution in EMT-6 BALB/C mice
- Assay type: in vivo
- condition_description: kidney, 1 hour
measured_property: % ID per gram kidney (% ID per gram)

1. COc1cc2c(cc1OC)CN(CCCCNC(=O)c1cc(C)cc(OC)c1O[11CH3])CC2 [[^11C]10] = 2.26
2. COc1cc2c(cc1OC)CN(CCCCNC(=O)c1cc([76Br])cc(OC)c1OC)CC2 [[^76Br]6] = 10.81
3. COc1cc2c(cc1OC)CN(CCCCNC(=O)c1cc(Br)cc(OC)c1O[11CH3])CC2 [[^11C]6] = 1.34
4. COc1cc2c(cc1OC)CN(CCNC(=O)c1cc(C)ccc1O[11CH3])CC2 [[^11C]9] = 1.01
5. COc1cc2c(cc1OC)CN(CCCCNC(=O)c1cc([125I])cc(OC)c1OC)CC2 [[^125I]6i] = 5.94
6. COc1cc2c(cc1OC)CN(CCNC(=O)c1cc([125I])ccc1OC)CC2 [[^125I]8i] = 18.07

###

# Lookup of reported ratio Tumor:muscle keyed by entry
- Tested on: EMT-6 mammary tumors
- experiment: Biodistribution in EMT-6 BALB/C mice
- Format: in vivo
- condition_description: 5 min
measured_property: ratio Tumor:muscle

1. COc1cc2c(cc1OC)CN(CCCCNC(=O)c1cc(C)cc(OC)c1O[11CH3])CC2 [[^11C]10] = 0.93
2. COc1cc2c(cc1OC)CN(CCCCNC(=O)c1cc(Br)cc(OC)c1O[11CH3])CC2 [[^11C]6] = 1.46
3. COc1cc2c(cc1OC)CN(CCCCNC(=O)c1cc([76Br])cc(OC)c1OC)CC2 [[^76Br]6] = 1.32
4. COc1cc2c(cc1OC)CN(CCCCNC(=O)c1cc([125I])cc(OC)c1OC)CC2 [[^125I]6i] = 0.98
5. COc1cc2c(cc1OC)CN(CCNC(=O)c1cc([125I])ccc1OC)CC2 [[^125I]8i] = 2.00

###

# Lookup of reported % ID per gram lung keyed by entry
- Tested on: EMT-6 mammary tumors
- experiment: Biodistribution in EMT-6 BALB/C mice
- Format: in vivo
- condition_description: lung, 5 min
measured_property: % ID per gram lung (% ID per gram)

1. COc1cc2c(cc1OC)CN(CCCCNC(=O)c1cc(Br)cc(OC)c1O[11CH3])CC2 [[^11C]6] = 6.01
2. COc1cc2c(cc1OC)CN(CCNC(=O)c1cc(C)ccc1O[11CH3])CC2 [[^11C]9] = 5.69
3. COc1cc2c(cc1OC)CN(CCNC(=O)c1cc([125I])ccc1OC)CC2 [[^125I]8i] = 5.95
4. COc1cc2c(cc1OC)CN(CCCCNC(=O)c1cc(C)cc(OC)c1O[11CH3])CC2 [[^11C]10] = 14.02
5. COc1cc2c(cc1OC)CN(CCCCNC(=O)c1cc([76Br])cc(OC)c1OC)CC2 [[^76Br]6] = 24.64
6. COc1cc2c(cc1OC)CN(CCCCNC(=O)c1cc([125I])cc(OC)c1OC)CC2 [[^125I]6i] = 27.13

###

- Tested on: EMT-6 mammary tumors
- experiment: Biodistribution in EMT-6 BALB/C mice
- Format: in vivo
- condition_description: 30 min
measured_property: ratio Tumor:fat

1) COc1cc2c(cc1OC)CN(CCCCNC(=O)c1cc(Br)cc(OC)c1O[11CH3])CC2 [[^11C]6] = 2.05 ± 0.57
2) COc1cc2c(cc1OC)CN(CCCCNC(=O)c1cc([76Br])cc(OC)c1OC)CC2 [[^76Br]6] = 2.35 ± 0.34
3) COc1cc2c(cc1OC)CN(CCCCNC(=O)c1cc(C)cc(OC)c1O[11CH3])CC2 [[^11C]10] = 3.68 ± 1.14
4) COc1cc2c(cc1OC)CN(CCCCNC(=O)c1cc([125I])cc(OC)c1OC)CC2 [[^125I]6i] = 2.62 ± 0.27
5) COc1cc2c(cc1OC)CN(CCNC(=O)c1cc([125I])ccc1OC)CC2 [[^125I]8i] = 1.49 ± 0.65

###

- Tested on: EMT-6 mammary tumors
- experiment: Biodistribution in EMT-6 BALB/C mice
- Assay type: in vivo
- condition_description: fat, 5 min
// No strictly below 3 % ID per gram in % ID per gram fat; Yes otherwise

1) COc1cc2c(cc1OC)CN(CCCCNC(=O)c1cc(C)cc(OC)c1O[11CH3])CC2 [[^11C]10] = No
2) COc1cc2c(cc1OC)CN(CCCCNC(=O)c1cc(Br)cc(OC)c1O[11CH3])CC2 [[^11C]6] = No
3) COc1cc2c(cc1OC)CN(CCCCNC(=O)c1cc([76Br])cc(OC)c1OC)CC2 [[^76Br]6] = Yes
4) COc1cc2c(cc1OC)CN(CCNC(=O)c1cc([125I])ccc1OC)CC2 [[^125I]8i] = Yes
5) COc1cc2c(cc1OC)CN(CCCCNC(=O)c1cc([125I])cc(OC)c1OC)CC2 [[^125I]6i] = Yes

###

- System: EMT-6 mammary tumors
- experiment: Biodistribution in EMT-6 BALB/C mice
- Type: in vivo
- condition_description: 1 hour
// class 0 strictly below 0.9 in ratio Tumor:lung; class 1 otherwise

1. COc1cc2c(cc1OC)CN(CCCCNC(=O)c1cc([125I])cc(OC)c1OC)CC2 [[^125I]6i] = class 1
2. COc1cc2c(cc1OC)CN(CCCCNC(=O)c1cc([76Br])cc(OC)c1OC)CC2 [[^76Br]6] = class 1
3. COc1cc2c(cc1OC)CN(CCCCNC(=O)c1cc(Br)cc(OC)c1O[11CH3])CC2 [[^11C]6] = class 0
4. COc1cc2c(cc1OC)CN(CCCCNC(=O)c1cc(C)cc(OC)c1O[11CH3])CC2 [[^11C]10] = class 1

###

- experiment: Biodistribution in EMT-6 BALB/C mice
- Type: in vivo
- condition_description: Balb/c, mouse, intravenous; kidney, 4 hour; read-out: % ID per gram kidney
- Excerpt: As used herein, the term “tumor:background ratio” (i.e., tumor:fat ratio, tumor:muscle ratio, tumor:lung ratio, tumor:blood ratio) refers to the % injected dose/g tissue of the radiotracer in the tumor divided by the % injected dose/g […] in the background tissue (i.e., fat, muscle, lung, blood). B. Biodistribution Studies of ^11C analogs in Tumor-Bearing Mice. […]
measured_property: tissue uptake at 4 h

1) COc1cc2c(cc1OC)CN(CCCCNC(=O)c1cc([125I])cc(OC)c1OC)CC2 [[^125I]6i] = 0.63 %ID/g
2) COc1cc2c(cc1OC)CN(CCCCNC(=O)c1cc([76Br])cc(OC)c1OC)CC2 [[^76Br]6] = 0.57 %ID/g

###

- experiment: Biodistribution in EMT-6 BALB/C mice
- Assay type: in vivo
- condition_description: Balb/c, mouse, intravenous; spleen, 5 min; read-out: % ID per gram spleen
measured_property: tissue uptake at 5 min (%ID/g)

1) COc1cc2c(cc1OC)CN(CCCCNC(=O)c1cc([76Br])cc(OC)c1OC)CC2 [[^76Br]6] = 12.5

###

- System: EMT-6 mammary tumors
- experiment: Biodistribution in EMT-6 BALB/C mice
- Assay type: in vivo
- condition_description: 1 hour
# Lookup of reported ratio Tumor:muscle keyed by entry
measured_property: ratio Tumor:muscle

1. COc1cc2c(cc1OC)CN(CCCCNC(=O)c1cc([76Br])cc(OC)c1OC)CC2 [[^76Br]6] = 6.76
2. COc1cc2c(cc1OC)CN(CCNC(=O)c1cc([125I])ccc1OC)CC2 [[^125I]8i] = 2.14
3. COc1cc2c(cc1OC)CN(CCCCNC(=O)c1cc(Br)cc(OC)c1O[11CH3])CC2 [[^11C]6] = 1.84
